Target: Myosin light chain kinase, smooth muscle (Homo sapiens)
Sequence (Q15746 whole entry): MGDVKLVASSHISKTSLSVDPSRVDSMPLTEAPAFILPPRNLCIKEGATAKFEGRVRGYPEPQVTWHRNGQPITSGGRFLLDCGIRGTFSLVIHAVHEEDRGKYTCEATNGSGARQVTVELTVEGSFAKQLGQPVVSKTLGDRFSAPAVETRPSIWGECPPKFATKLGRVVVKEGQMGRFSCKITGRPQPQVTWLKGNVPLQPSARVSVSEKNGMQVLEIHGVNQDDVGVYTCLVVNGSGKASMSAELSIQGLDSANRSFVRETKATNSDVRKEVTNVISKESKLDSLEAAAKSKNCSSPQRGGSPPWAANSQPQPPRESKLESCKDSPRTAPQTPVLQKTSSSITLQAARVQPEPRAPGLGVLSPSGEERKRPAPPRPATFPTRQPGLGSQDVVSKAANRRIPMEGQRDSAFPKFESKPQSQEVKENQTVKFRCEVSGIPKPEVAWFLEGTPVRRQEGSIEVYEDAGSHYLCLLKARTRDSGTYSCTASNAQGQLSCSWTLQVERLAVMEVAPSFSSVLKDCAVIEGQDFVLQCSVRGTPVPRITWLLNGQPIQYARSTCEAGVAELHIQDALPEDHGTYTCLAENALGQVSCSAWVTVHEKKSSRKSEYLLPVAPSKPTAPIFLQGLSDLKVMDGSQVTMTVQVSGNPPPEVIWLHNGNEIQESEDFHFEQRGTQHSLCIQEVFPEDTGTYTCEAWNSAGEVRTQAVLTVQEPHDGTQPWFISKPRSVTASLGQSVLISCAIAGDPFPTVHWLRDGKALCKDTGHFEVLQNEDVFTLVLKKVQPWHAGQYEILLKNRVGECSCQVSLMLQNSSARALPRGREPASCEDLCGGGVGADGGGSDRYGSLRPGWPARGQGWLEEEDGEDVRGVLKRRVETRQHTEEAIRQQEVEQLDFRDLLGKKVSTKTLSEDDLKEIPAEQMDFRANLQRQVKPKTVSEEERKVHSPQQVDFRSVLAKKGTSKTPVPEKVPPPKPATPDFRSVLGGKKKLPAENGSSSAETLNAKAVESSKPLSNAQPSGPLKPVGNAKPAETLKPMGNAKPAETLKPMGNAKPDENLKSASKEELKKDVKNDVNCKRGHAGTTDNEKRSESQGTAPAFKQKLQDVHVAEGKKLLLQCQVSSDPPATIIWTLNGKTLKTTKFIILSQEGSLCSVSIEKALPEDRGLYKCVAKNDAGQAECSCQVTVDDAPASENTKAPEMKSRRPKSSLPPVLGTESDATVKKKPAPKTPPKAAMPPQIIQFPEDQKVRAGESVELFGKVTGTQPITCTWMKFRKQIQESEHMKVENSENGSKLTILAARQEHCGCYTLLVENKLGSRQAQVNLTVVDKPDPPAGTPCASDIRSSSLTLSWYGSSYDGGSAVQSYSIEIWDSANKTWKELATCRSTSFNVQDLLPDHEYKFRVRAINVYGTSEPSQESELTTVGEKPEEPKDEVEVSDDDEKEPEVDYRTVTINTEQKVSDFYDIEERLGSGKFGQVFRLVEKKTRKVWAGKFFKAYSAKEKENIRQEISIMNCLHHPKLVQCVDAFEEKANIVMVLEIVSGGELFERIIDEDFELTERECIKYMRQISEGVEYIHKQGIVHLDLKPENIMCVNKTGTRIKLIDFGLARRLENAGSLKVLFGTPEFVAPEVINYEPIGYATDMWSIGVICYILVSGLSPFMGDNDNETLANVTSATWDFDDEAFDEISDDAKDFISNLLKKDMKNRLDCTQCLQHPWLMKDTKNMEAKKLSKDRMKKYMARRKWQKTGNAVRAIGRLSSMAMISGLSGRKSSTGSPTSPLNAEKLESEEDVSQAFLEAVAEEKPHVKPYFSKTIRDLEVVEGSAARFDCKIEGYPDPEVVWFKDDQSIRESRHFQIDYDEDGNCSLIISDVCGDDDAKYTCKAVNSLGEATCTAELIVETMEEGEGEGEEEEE
Experiment: Inhibition of MLCK (unknown origin) incubated for 15 mins using [gamma-32P]-ATP by scintillation counting method
Conditions: read-out: IC50
Readout Type: IC50 (µM)

Previously resolved entries follow.
CCOC(=O)C1=C(C)NC(OC)N(CC(=O)c2ccccc2)C1c1ccc(Cl)cc1 (configuration not stated); 31.3
COC(=O)C1=C(C)N=C2Sc3ccccc3N2C1c1ccc(OC)cc1 (configuration not stated); 2.14
CCOC(=O)C1=C(C)NC(OC)N(CC(=O)c2ccc(Cl)cc2)C1c1ccc(C)cc1 (configuration not stated); 29.2
CCOC(=O)C1=C(C)NC(OC)N(CC(=O)c2ccc(Cl)cc2)C1c1ccc(Cl)cc1 (configuration not stated); 41.3
COC(=O)C1=C(C)N=C2Sc3ccccc3N2C1c1ccc(O)cc1 (configuration not stated); 4.21

(a) CCOC(=O)C1=C(C)NC(OC)N(CC(=O)c2ccccc2)C1c1ccc(O)cc1 (configuration not stated)
(b) CCOC(=O)C1=C(C)N=C2Sc3ccccc3N2C1c1cccc([N+](=O)[O-])c1 (configuration not stated)
(c) CCOC(=O)C1=C(C)NC(OC)N(CC(=O)c2ccc(Cl)cc2)C1c1ccc(O)cc1 (configuration not stated)
Arrange these 3 compounds in increasing order of IC50. Output the labels ranked as instructed.
b, a, c
(b: 2.1 µM, a: 10.2 µM, c: 15.2 µM)

(1) CCOC(=O)C1=C(C)NC(OC)N(CC(=O)c2ccc(OC)cc2)C1c1ccc(C)cc1 (configuration not stated)
(2) COC(=O)C1=C(C)N=C2Sc3ccccc3N2C1c1ccc([N+](=O)[O-])cc1 (configuration not stated)
Thinking about recorded IC50 values, which is higher, 1 or 2 ? State the label of the item chosen.
1
(1: 5.1 µM, 2: 2.04 µM)

(I) COC(=O)C1=C(C)N=C2Sc3ccccc3N2C1c1ccccc1O (configuration not stated)
(II) COC(=O)C1=C(C)N=C2Sc3ccccc3N2C1c1ccc(Cl)cc1 (configuration not stated)
Between item I and item II , which reported IC50 is smaller? State the label of the item chosen.
I
(I: 4.3 µM, II: 9.1 µM)

###

Molecular target: UniProt:Q15746
Assay: Inhibition of MLCK (unknown origin) incubated for 15 mins using [gamma-32P]-ATP by scintillation counting method
Conditions: read-out: IC50
Readout Type: IC50 (µM)

CCOC(=O)C1=C(C)NC(OC)N(CC(=O)c2ccc(OC)cc2)C1c1ccc(OC)cc1 (stereo not given); 4.1
COC(=O)C1=C(C)N=C2Sc3ccccc3N2C1c1ccc(N(C)C)cc1 (stereo not given); 4.37

###

Biological target: Myosin light chain kinase, smooth muscle (Homo sapiens)
Test: Inhibition of MLCK (unknown origin) incubated for 15 mins using [gamma-32P]-ATP by scintillation counting method
Conditions: read-out: IC50
pIC50: −log10 of the molar value.
Readout Type: pIC50

Previously resolved entries follow.
Cc1cc(C)nc(Nc2nc3ccccc3s2)n1; < 4.00
CCc1nc(Nc2nc3ccccc3s2)nc(C)c1C(C)=O; < 4.00

Here is the next item to consider.
Recorded pIC50 for CC(=O)c1c(C)nc(Nc2nc3ccccc3s2)nc1C with Myosin light chain kinase, smooth muscle (Homo sapiens), please?
< 4.00
